What follows is literature data on IC50 for the protein given by its sequence.
Sequence of the target: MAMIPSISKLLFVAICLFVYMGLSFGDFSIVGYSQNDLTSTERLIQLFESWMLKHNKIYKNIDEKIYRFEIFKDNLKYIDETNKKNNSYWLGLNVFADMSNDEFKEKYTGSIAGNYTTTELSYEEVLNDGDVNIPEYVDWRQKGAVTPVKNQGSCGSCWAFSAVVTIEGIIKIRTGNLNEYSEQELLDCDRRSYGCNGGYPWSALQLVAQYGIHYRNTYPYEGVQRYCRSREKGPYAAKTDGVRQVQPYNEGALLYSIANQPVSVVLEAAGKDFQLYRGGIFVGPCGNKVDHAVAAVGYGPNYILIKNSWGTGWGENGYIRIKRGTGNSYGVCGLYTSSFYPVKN
measure_name: IC50 (µM)

{"compound": "CN(CC(=O)N(Cc1ccc(C2CCCCC2)cc1)c1ccc(C(=O)O)c(O)c1)S(=O)(=O)c1cccc2cccnc12", "test_target": "the protein given by its sequence", "measure_name": "IC50", "reading_qualifier": ">", "recorded_value": 10}
{"compound": "CN1CCN(C(=O)N[C@@H](Cc2ccccc2)C(=O)N[C@@H](CCCNC(=N)N)CSS(=O)(=O)C2CCCCC2)CC1", "test_target": "the protein given by its sequence", "measure_name": "IC50", "reading_qualifier": "=", "recorded_value": 0.106}
{"compound": "COC(=O)c1cccc(-c2ccc(-c3ccc(CN(C(=O)CN(C)S(=O)(=O)c4ccc(C)cc4)c4ccc(C(=O)O)c(O)c4)cc3)cc2)c1", "test_target": "the protein given by its sequence", "measure_name": "IC50", "reading_qualifier": ">", "recorded_value": 10}
{"compound": "CN1CCN(C(=O)N[C@@H](Cc2ccccc2)C(=O)N[C@@H](CCc2ccccc2)CSS(=O)(=O)c2ccccc2)CC1", "test_target": "the protein given by its sequence", "measure_name": "IC50", "reading_qualifier": "=", "recorded_value": 0.19}
{"compound": "Cc1ccc(S(=O)(=O)SC[C@H](CCCNC(=N)N)NC(=O)[C@H](Cc2ccccc2)NC(=O)N2CCN(C)CC2)cc1", "test_target": "the protein given by its sequence", "measure_name": "IC50", "reading_qualifier": "=", "recorded_value": 0.162}
{"compound": "CC[C@H](C)[C@H](NC(=O)[C@H](CCCN=C(N)N)NC(=O)OCc1ccccc1)C(=O)N[C@H](C=O)Cc1ccccc1", "test_target": "the protein given by its sequence", "measure_name": "IC50", "reading_qualifier": "=", "recorded_value": 0.07}
{"compound": "CC(C)COC(=O)N[C@@H](Cc1ccccc1)C(=O)N[C@@H](C=O)CCCN=C(N)N", "test_target": "the protein given by its sequence", "measure_name": "IC50", "reading_qualifier": "=", "recorded_value": 12.5}
{"compound": "CCOP(=O)(/C=C/C(NC(=O)[C@H](Cc1ccc(O)cc1)NC(=O)OCc1ccccc1)c1ccccc1)OCC (mixture of isomers)", "test_target": "the protein given by its sequence", "measure_name": "IC50", "reading_qualifier": "=", "recorded_value": 54}
{"compound": "N#CCNC(=O)[C@H](Cc1ccccc1)NC(=O)c1ccc(Cn2nnc3c2-c2ccccc2CN(C(=O)CCCC(=O)NCCOCCOCCN)c2ccccc2-3)cc1", "test_target": "the protein given by its sequence", "measure_name": "IC50", "reading_qualifier": "=", "recorded_value": 5.98}
{"compound": "O=C(CCC(=O)N1CCCCC1)Nc1ccc2c(c1)C(=O)C(=O)NC2=O", "test_target": "the protein given by its sequence", "measure_name": "IC50", "reading_qualifier": ">", "recorded_value": 5}
{"compound": "CN(CC(=O)N(Cc1ccc(C2CCCCC2)cc1)c1ccc(C(=O)O)c(O)c1)S(=O)(=O)c1cccc2ccccc12", "test_target": "the protein given by its sequence", "measure_name": "IC50", "reading_qualifier": ">", "recorded_value": 10}
{"compound": "CC(=O)N[C@@H](CC(C)C)C(=O)N[C@@H](CC(C)C)C(=O)N[C@H](C=O)CCCNC(=N)N", "test_target": "the protein given by its sequence", "measure_name": "IC50", "reading_qualifier": "=", "recorded_value": 0.0022}
{"compound": "N#CCNC(=O)[C@H](Cc1ccccc1)NC(=O)c1ccc(-c2ccc(CN=[N+]=[N-])cc2)cc1", "test_target": "the protein given by its sequence", "measure_name": "IC50", "reading_qualifier": "=", "recorded_value": 13.9}
